Assay: log P by HPLC (OECD Guideline 117), method [b] neutral range
Format: physicochemical
Conditions: HPLC, method [b] neutral range
Procedure: The log P values were determined analogously to OECD Guideline 117 (EC Directive 92/69/EEC) by HPLC (high-performance liquid chromatography) using reversed-phase columns (C 18), by the following methods: [b] The LC-MS determination in the neutral range is effected at pH 7.8 with 0.001 molar aqueous ammonium hydrogencarbonate solution and acetonitrile as eluents; linear gradient from 10% acetonitrile to 95% acetonitrile.
MEASURED_ENDPOINT: logP[b]
Respond numerically, and do not add a unit to the figure.

### Prompt Param item = CCCCc1nn(-c2cc(SCC(F)(F)F)c(C)cc2F)c(=O)n1C1CC1 [Example 71] ; retrieve measured logP[b].
### Response 3.96

### Prompt Sample Cc1cc(F)c(-n2nc(SCC(F)(F)F)n(C)c2=O)cc1[S+]([O-])CC(F)(F)F (racemic) [Example 282] — what was its logP[b]?
### Response 2.52

### Prompt // query logP[b] value for entry Cc1cc(F)c(-n2nc(-c3ccc(Cl)cc3F)n(C)c2=O)cc1[S+]([O-])CC(F)(F)F (centres unmarked) [Example 39]
### Response 2.91

### Prompt Any idea what its logP[b] is? The compound is COc1cc(F)c(-n2nc(OCC(F)(F)F)n(C3CC3)c2=O)cc1SCC(F)(F)F [Example 188]
### Response 3.46

### Prompt Data request, read-out logP[b], for Cc1cc(F)c(-n2nc(C(C)C)n(N)c2=O)cc1[S+]([O-])CC(F)(F)F (centres unmarked) [Example 204]
### Response 1.95

### Prompt logP[b] lookup needed for Cc1cc(F)c(-n2nc(SC(C)C)n(C)c2=O)cc1SCC(F)(F)F [Example 276] , thanks.
### Response 3.80

### Prompt # logP[b] lookup, item CNc1nn(-c2cc([S+]([O-])CC(F)(F)F)c(C)cc2F)c(=O)n1N (centres unmarked) [Example 219]
### Response 1.29

### Prompt Would you mind telling me what logP[b] value was observed for COc1nn(-c2ccc(Br)c(SCC(F)(F)F)c2)c(=O)n1C1CC1 [Example 111] ?
### Response 3.93
